Attribution: PubChem BioAssay

We begin with a simple list: items and their reported composite z-score.
- Tested on: Inhibin beta A chain (activin A)
- TEST_SUMMARY: INHBA (activin A) binders on microarrays, primary screen, biochemical, small-molecule microarray, 635 nm fluorescence scan (AID 1107);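 further: mouse activin A protein probed at 4.33 µg/mL on printed slides; score merges bound-protein fluorescence near 667 nm with spot signal-to-noise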
- ASSAY_CONDITIONS: small-molecule microarray binding, higher = more signal
Response field accepts a number only; no unit should be typed.

Example entries and their recorded answers appear below.
- COMPOUND: "O=C1C[C@@](C(=O)NCC(F)(F)F)(c2ccc([N+](=O)[O-])cc2)[C@@H](c2ccc(CO)cc2I)N1C1CCCCC1"
  STUDY_SYSTEM: "Inhibin beta A chain (activin A)"
  composite z-score: 0.539
- COMPOUND: "C[C@@]1([C@@H](NC(=O)c2ccc(-c3ccccc3)cc2)c2ccc(Cl)cc2)C[C@H]1C1CCCCC1"
  STUDY_SYSTEM: "Inhibin beta A chain (activin A)"
  composite z-score: 0.387
- COMPOUND: "COc1ccc(-c2cc3c(c(-c4ccc(Oc5ccccc5)cc4)n2)[Si](C(C)C)(C(C)C)OC3)cn1"
  STUDY_SYSTEM: "Inhibin beta A chain (activin A)"
  composite z-score: 0.365
- COMPOUND: "O=C(OCc1ccccc1)C1=CCC2c3[nH]c4ccccc4c3C(=O)C1N2S(=O)(=O)c1ccccc1[N+](=O)[O-] (stereo not drawn)"
  STUDY_SYSTEM: "Inhibin beta A chain (activin A)"
  composite z-score: 0.618
- COMPOUND: "O=C1O[C@@H](c2ccccc2)[C@@H](c2ccccc2)N2[C@@H](c3ccccc3OCCO)[C@]3(C(=O)Nc4ccc(C#CC5=CCCCC5)cc43)[C@@H](C(=O)N3CCCCCCC3)[C@H]12"
  STUDY_SYSTEM: "Inhibin beta A chain (activin A)"
  composite z-score: 1.8
- COMPOUND: "COCCOC(=O)N1C(=O)[C@@]2(c3cc(C#CCC(C(=O)OC)C(=O)OC)ccc31)[C@H](c1ccccc1OCCO)N1[C@H](c3ccccc3)[C@H](c3ccccc3)OC(=O)[C@H]1[C@@H]2C(=O)NC[C@H](O)c1ccccc1"
  STUDY_SYSTEM: "Inhibin beta A chain (activin A)"
  composite z-score: 0.619

What value of measured composite z-score is listed for CCOC(=O)C[C@H]1[C@H](OC(=O)c2ccccc2-c2ccccc2)[C@@H](NC(=O)CC(C)C)c2cc(OCCCO)ccc2N1C(=O)Cc1ccc(OC)cc1 ? 0.328

// returns reported composite z-score for input CC(=O)NCCCC[C@@H]1NC(=O)[C@H]2C[C@@H](C(=O)NCCCCCCNC(=O)CS)[C@@H](c3ccc(O)cc3)N2C1=O -1.11

Give its composite z-score value. Item: CCOC(=O)C[C@H]1[C@H](OC(=O)c2ccc(C(=O)c3ccccc3)cc2)[C@@H](NC(=O)c2ccc3ccccc3n2)c2cc(OCCCO)ccc2N1C(=O)c1ccccc1 -0.177

Requested read-out: composite z-score. Entry: CC(C)c1ccc(NN2C(C(O)c3ccc(B(O)O)cc3)C=CC3C(=O)N(c4ccccc4)C(=O)C32)cc1 (stereo not drawn) 0.849

Item under review: CCOC(=O)C[C@H]1[C@H](OC(=O)c2ccc(C(=O)c3ccccc3)cc2)[C@@H](NC(=O)c2ccccc2)c2cc(OCCCO)ccc2N1C(=O)Cc1ccc(OC)cc1 . Reported composite z-score? 0.811

Field request: composite z-score | item: CC(C)OC(=O)C=C1C[C@@H](c2ccccn2)O[C@@H](c2ccccn2)O1 1.21

# composite z-score lookup, item CC[C@@H]1C=C(C(=O)O)[C@H](c2ccc(Br)cc2)N1S(=O)(=O)c1ccc(C)cc1 1.11

Given the entry NC(=O)[C@@H]1[C@H]2C(=O)O[C@H](c3ccccc3)[C@H](c3ccccc3)N2[C@H](c2ccc(O)cc2)[C@@]12C(=O)Nc1ccccc12 , report its measured composite z-score. -0.638

What does the data say about its composite z-score? Entry: C=CCC(OC(C)=O)[C@@H]1[C@@H](N(Cc2ccc(-c3ccccc3)cc2)C(=O)c2cccc3ccccc23)c2cc(OCCCO)ccc2N1C(=O)c1ccc(-c2ccccc2)cc1 (stereo partly drawn) 1.09

Quick check: composite z-score of C[N+](C)(C)CCCCNC(=O)[C@@H]1C[C@@H]2C(=O)N[C@@H](Cc3ccccc3)C(=O)N2[C@@H]1c1cccc(OCCO)c1 ? -0.15

So what does the record say about composite z-score for CCOC(=O)C[C@H]1[C@H](OC(=O)c2ccc(C(=O)c3ccccc3)cc2)[C@@H](NC(=O)c2ccc3ccccc3c2)c2cc(OCCCO)ccc2N1C(=O)Cc1ccc(OC)cc1 ? 0.856

Need composite z-score of COc1cc2c(cc1OC)CN(C(=O)[C@@H]1[C@H]3C(=O)O[C@H](c4ccccc4)[C@H](c4ccccc4)N3[C@H](c3ccccc3OCCO)[C@@]13C(=O)Nc1ccc(C#CCCO)cc13)CC2 , thanks. 0.91
